# Test system: MSSE ATCC 12228
# test_method_notes: MIC, agar dilution, MSSE ATCC 12228
# Type: cell-based, S. epidermidis
# conditions_used: Staphylococcus epidermidis, ATCC12228; MSSE ATCC 12228; read-out: MIC
Items are presented alongside their recorded MIC.
readout_label: MIC

COc1ccc2c(c[n+]3ccc4cc5c(c6c(Cc7c(F)cccc7F)cc2c3c46)OCO5)c1O [13d] : > 64 µg/mL
COc1ccc2c(c[n+]3ccc4cc5c(c6c(Cc7ccccc7C)cc2c3c46)OCO5)c1O [13g] : > 64 µg/mL
COc1ccc2c(c[n+]3ccc4cc5c(c6c(Cc7ccc(F)cc7)cc2c3c46)OCO5)c1O [13b] : > 64 µg/mL
